binders and their reported koff
Target: T1, human CD3 Delta/Epsilon Fc fusion protein (human, UniProt P04234 22-105; P07766 23-126)
T1 construct: Construct limits and Fc are not described; also called Human CD3 Delta-Epsilon Fc ("Knobs-into-hole"-KnH)
T1 sequence (P04234 22-105, stated change not applied, chain 1 of 2): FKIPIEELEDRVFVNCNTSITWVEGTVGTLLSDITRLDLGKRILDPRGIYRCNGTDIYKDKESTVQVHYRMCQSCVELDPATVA
T1 sequence (P07766 23-126, stated change not applied, chain 2 of 2): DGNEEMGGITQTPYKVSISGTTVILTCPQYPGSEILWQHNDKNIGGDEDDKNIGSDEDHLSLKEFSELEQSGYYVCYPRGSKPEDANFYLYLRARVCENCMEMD
Assay: Octet (bio-layer interferometry), bivalent kdis
Numeric only. Scale: s⁻¹

A selection of reference data follows.
480C8 1.1 (antibody, human IgG1, kappa, V domains shown, sheet: mAb '480C8 1.1', format 'humanized'; also called 480C8 humanized) VH: EVQLVESGGGLVQPGGSLRLSCAASGIDLSSNAMSWVRQAPGKGLEWIGVITGRDITYYASWAKGRFTISRDNSKNTLYLQMNSLRAEDTAVYYCARDGGSSAINSKNIWGQGTLVTVSS VL: DIQMTQSPSTLSASVGDRVTITCQASESISSWLAWYQQKPGKAPKLLIYEASKLASGVPSRFSGSGSGTEFTLTISSLQPDDFATYYCQGYFYFISRTYVNAFGGGTKVEIKR: 0.0005
284A10 chimeric rabbit/human IgG antibody (antibody, V domains shown) VH: QSLEESGGRLVTPGTPLTLTCTVSGFTISTNAMSWVRQVPGKGLEWIGVITGRDITYYASWAKGRFTISKTSSTTVDLKMTSLTAEDSATYFCARDGGSSAITSNNIWGPGTLVTVSS VL: DVVMTQTPPSVSAAVGGTVTIKCQASESISSWLAWYQQKPGQPPKLLIYEASKLASGVPSRFSGSGSGTEFTLTISDLECADAATYYCQGYFYFISRTYVNSFGGGTEVEFKR: 0.0005

What value of measured koff is listed for 480A7 chimeric rabbit/human IgG antibody (antibody, V domains shown) VH: QSLEESGGRLVTPGTPLTLTCTVSGIDLSSNAMSWVRQAPGKGLEWIGVITGRDITYYASWAKGRFTISKTSSTTVDLKMTSLTAEDSATYFCARDGGSSAITSKNIWGPGTLVTVSS VL: DVVMTQTPASVEAAVGGTVTINCQASESISSWLAWYQQRPGQPPKLLIYEASKLASGVPSRFSGSGSGTEFTLTISDLECADAATYYCQGYFYFISRSYVNAFGGGTEVVFKR ? 0.00066

Which value of koff has been reported for 299F6 chimeric rabbit/human IgG antibody (antibody, V domains shown) VH: QSLEESGGRLVTPGTPLTLTCTVSGFTISSNAMSWVRQAPGKGLEWIGVITGRDITYYANWAKGRFTISKTSSTTVDLKMTSLTAEDSATYFCARDGGSSAITSNNIWGPGTLVTVSS VL: DVVMTQTPSSVSAAVGGTVTINCQASESISSWLAWYQQKPGQPPKLLIYEASKLASGVPSRFSGSGSGTEFTLTISDLECADAATYYCQGYFYFISRSYVNAFGGGTEVVFKR in the records? 0.00049

May I ask what koff has been recorded for 284A10 1.1 (antibody, human IgG1, kappa, V domains shown, sheet: mAb '284A10 1.1', format 'humanized'; also called 284A10 humanized) VH: EVQLVESGGGLVQPGGSLRLSCAASGFTISTNAMSWVRQAPGKGLEWIGVITGRDITYYASWAKGRFTISRDNSKNTLYLQMNSLRAEDTAVYYCARDGGSSAITSNNIWGQGTLVTVSS VL: DVVMTQSPSTLSASVGDRVTINCQASESISSWLAWYQQKPGKAPKLLIYEASKLASGVPSRFSGSGSGTEFTLTISSLQPDDFATYYCQGYFYFISRTYVNSFGGGTKVEIKR ? 0.00053
